B1: HDV Ribozyme (parent)
chain: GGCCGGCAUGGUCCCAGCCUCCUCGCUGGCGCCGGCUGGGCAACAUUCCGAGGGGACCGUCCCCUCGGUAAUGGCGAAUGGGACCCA

Variants of: B1
Assay overview: self-cleavage, relative activity (ratio to wild type); higher = more cleavage; co-transcriptional
Endpoint name: self-cleavage

1. GGCCGGCAUGGUACAAGCCUCCUCGCUGGCGCCGGCUGGGCAACAUUCCGAGGGGACCGUCCCCUCGGUAAUGGCGAAUGGGACCCA [C13A C15A]	0
2. GGCCGGCAUGGACCCAGCCUCCUCGCUGGCGCCGGCUGGGCAACAUUCCGCGGGGACCGUCCCCUCGGUAAUGGCGAAUGGGACCCA [U12A A51C]	0.237
3. GGCCGGCAUGGUCCCAGCCUCCUCGCUGGCGCCGGCUGGGCAACAUUCCGAGGUGACCGUCCCCUCGGUAACGGCGAAUGGGACCCA [G54U U72C]	0.554
4. GGCCGGCAUGGUCCCAGCAUCCUCGGUGGCGCCGGCUGGGCAACAUUCCGAGGGGACCGUCCCCUCGGUAAUGGCGAAUGGGACCCA [C19A C26G]	0.312
5. GGCCGACAUGGUCCCAGGCUCCUCGCUGGCGCCGGCUGGGCAACAUUCCGAGGGGACCGUCCCCUCGGUAAUGGCGAAUGGGACCCA [G6A C18G]	0.115
6. GGCCGGCAUGGUCCCAGCCUCCUCGCUGGCGCCGGCUGGGAAACAUUCCGAGGGGACUGUCCCCUCGGUAAUGGCGAAUGGGACCCA [C41A C58U]	0.778
7. GGCCGGCAGGGUCCCAGCCUCCUCGCUGGCGCCGGCUGGGCAACAUUCCGAGGGGAACGUCCCCUCGGUAAUGGCGAAUGGGACCCA [U9G C57A]	0.831
8. GGCCGGCAUGGUCCCAGCCUCCUCGCUGGCGCCGGCUGGGCAACAUUCCGAGGGCACCGUCCCUUCGGUAAUGGCGAAUGGGACCCA [G55C C64U]	1.12
9. GGCCGGCAUGGUCCCAGCCUCCUCGCUGGCGCCGGCUGAGCAACAUUCCGAGGGGACCGUCCCCUCGGUAAUGGCGAAUGGAACCCA [G39A G82A]	0.136
10. GGCCGGCAUGGUCCCAGCCUCCUCGCUGGCGCCGUCUGGGCAACAUUCCGAGGGGUCCGUCCCCUCGGUAAUGGCGAAUGGGACCCA [G35U A56U]	0.62
11. GGCCGGCAUGGUCCCAGCCUCCUCGCUGGCGCCGGCCGGGCAACAUUCCGAGGGGACCGUCCCCUCGGUAAUGGCGAAUGGGAACCA [U37C C84A]	0.697
12. GGCCGGCAUGGUCCCAGCCUCCUCGCUGUCGCCGGCUGGGCAACAUUCCGAGGGGACCGUCCCCUCGGUAAUGGCUAAUGGGACCCA [G29U G76U]	0.137
13. GGCCGGCAUGGUCCCAGCCUCCUCUCUGGCGCCGGCUGGGCAACAUUCCGAGGGGUCCGUCCCCUCGGUAAUGGCGAAUGGGACCCA [G25U A56U]	0.249
14. GGCCGGCAUGGCCCCAGCCUCCUCGCUGGCGCCGGCUGGGCAACAUUCCGAGGGGACCCUCCCCUCGGUAAUGGCGAAUGGGACCCA [U12C G59C]	0.415
15. GGCCGGCAUGGUCCCAGCCUCCUCGCUGGCGCCGGCUGGGCAACAUUCCGAACGGACCGUCCCCUCGGUAAUGGCGAAUGGGACCCA [G52A G53C]	0.743
16. GGCCGGGAUGUUCCCAGCCUCCUCGCUGGCGCCGGCUGGGCAACAUUCCGAGGGGACCGUCCCCUCGGUAAUGGCGAAUGGGACCCA [C7G G11U]	0.104
17. GGCCGGCAUGGUCCCAGCCUCCUCGCUGGCGCCGGCUGGGCAACAUUCUGAGGGGCCCGUCCCCUCGGUAAUGGCGAAUGGGACCCA [C49U A56C]	0.773
18. GGCCGGCAUGGUCCCAGCCUCCUCGCUGGCGCCGGCUGGGCAACAUUCCGAGGGGACCGUCCCCUCGGAAAUGGCGAAUGGGACGCA [U69A C85G]	1.16
19. GGCCGGCAUGGUCGUAGCCUCCUCGCUGGCGCCGGCUGGGCAACAUUCCGAGGGGACCGUCCCCUCGGUAAUGGCGAAUGGGACCCA [C14G C15U]	0.111
20. GGCCGGCAUGGUCCCAGCCUCCUCGCUGGCGCCGGCUGGACAACAUUCCGAGGGGACCGACCCCUCGGUAAUGGCGAAUGGGACCCA [G40A U60A]	1
21. GGCCGGCAAGGUCCCAGCCUCCUCGCUGGGGCCGGCUGGGCAACAUUCCGAGGGGACCGUCCCCUCGGUAAUGGCGAAUGGGACCCA [U9A C30G]	0.138
22. GGCCGGCAUGGUCCCAGCCUUCUCGCUGGCGCCGGCUGGGCAACAUUCCGAGGGGACCGUCCCCUCGGUAAUGGCCAAUGGGACCCA [C21U G76C]	0.347
23. GGCCAGCAUGGUCCCAGCCUCCUCGCUGGCGCCGGCUGGGCAACAUUCCGAGGGGACCGUCCCCUCGGUAAUGGUGAAUGGGACCCA [G5A C75U]	0.0346
24. GGCCGGCAUGGUCCCAGCCUCCUCGCUGGCGCCGCCUGGGCAAAAUUCCGAGGGGACCGUCCCCUCGGUAAUGGCGAAUGGGACCCA [G35C C44A]	0.0573
25. AGCCGGCAUGGUCCCAGCCUCCUCGCUGCCGCCGGCUGGGCAACAUUCCGAGGGGACCGUCCCCUCGGUAAUGGCGAAUGGGACCCA [G1A G29C]	0.181
26. GGCCGGCAUGGUCCCAGCCUCCUCGCUGGAUCCGGCUGGGCAACAUUCCGAGGGGACCGUCCCCUCGGUAAUGGCGAAUGGGACCCA [C30A G31U]	0.0733
27. GGCCGGCAUGGUCCAAGCCUCCUCGCUGGCGCCGGCUGGGCAACAUUCCGAGGGGACCGUCCCCUCGGUUAUGGCGAAUGGGACCCA [C15A A70U]	0.723
28. GGCCGGCAUUGUCCCAGCCUCCUCGCUGGCGCCGGCUGGGCAACAUUCCGAGGGGAACGUCCCCUCGGUAAUGGCGAAUGGGACCCA [G10U C57A]	0.749
29. GGCCGGCAUGGUCUCAGCCUCCUCGCUGGCGCCGGCUGGGCAACAUUCCGAGGGGACCGUCCCCUCGGUAAUGGUGAAUGGGACCCA [C14U C75U]	0.138
30. GGCCGGCAUGGUCCCAGCCUCCUCGCUGGCGCCGGCUGGGCAACAUUCCGAGGGGACCGUCCCCUCGGUAAUGGCGAAGAGGACCCA [U79G G80A]	0.249
31. GGCCGGCAUGGUCCCAGCCUCCUCGCUGGCGCCGGUUGGGCAACAUUCCGAGGGGACCGUCCCCUCGGUAAUGGCGAAUGGGACCUA [C36U C86U]	0.712
32. GGCCGGCAUGGUCCCAGCCUCCCCGCUGGCGCCGGCUGGGCAAUAUUCCGAGGGGACCGUCCCCUCGGUAAUGGCGAAUGGGACCCA [U23C C44U]	0.554
33. GGCCGGCAUGGUCCCAGCCUCCUCGCUGGCGCCGGCUGGGCAACAUUCCGAUGGGACCGUCCCCUCGGUAAUGGCGAAUGGGACCCU [G52U A87U]	1
34. GGCCGGCAUGGUCCCAGCCUCCUCGCUGGCGCCGGCUGGGCAACAUUCCGAGGGGACCGUCCUCUCGGUAAUGGCAAAUGGGACCCA [C63U G76A]	0.855
35. GGCCGACAUGGUCCCGGCCUCCUCGCUGGCGCCGGCUGGGCAACAUUCCGAGGGGACCGUCCCCUCGGUAAUGGCGAAUGGGACCCA [G6A A16G]	0.573
36. GGCCGGCAUGGUCCCAGCCUCCUCGCUGGCGCCGGCUGGGCAACAUUCCGAGGGGACCGUCCCCUCGGUAACGGCGAAUGGUACCCA [U72C G82U]	0.145
37. GGCCGGCAUGGUCCCAGCCUCCUCGCUGGCGGCGGCUGGGCAACAUUCCGAGGGGCCCGUCCCCUCGGUAAUGGCGAAUGGGACCCA [C32G A56C]	0.0739
38. GGCCGGCAUGGUCCCAGCCUCCUCGCUGGCGCCGGCUGGGCAACAUUCCGAGGUGACCGUCCCCUCGGUAAUCGCGAAUGGGACCCA [G54U G73C]	0.297
39. GGCCGGCAUGGUCCCAGCCUCCUCGCUGGCGCCGGCGGGGCAACAUUCCGAGGGGACCGUCCCCUCGAUAAUGGCGAAUGGGACCCA [U37G G68A]	0.246
40. GGCCGGCAUGGUCCCAGCCUACUCGCUGGCGCCGGCUGGGCAACAUUCGGAGGGGACCGUCCCCUCGGUAAUGGCGAAUGGGACCCA [C21A C49G]	0.102
41. GGCCGGCAUGGUCCCAGCCUCCUCGCUGGCGCCGGCUGGGCAACGUUCCGAGGGGACCGUCCCCUCGGUAAUCGCGAAUGGGACCCA [A45G G73C]	0.388
42. GGCCGGCAUGGUCCCAGCCUCGUCGCUGGCGCCGGAUGGGCAACAUUCCGAGGGGACCGUCCCCUCGGUAAUGGCGAAUGGGACCCA [C22G C36A]	0.0773
43. GGCCGGCAUGGGCCCAGCCUCCUCGCUGGCGCCGGCUGGGCAACAUUCCGAGGGGACCGUCCCAUCGGUAAUGGCGAAUGGGACCCA [U12G C64A]	0.594
44. GGCCGGCAUGGUCCCAGCCUCCUCGCUGGCGCCGGCUGGUCAACAUUCCGAGGGGACCGACCCCUCGGUAAUGGCGAAUGGGACCCA [G40U U60A]	0.795
45. GGCCGGCAUGCUCCCAGCCUCCUCGCUGGCGCCGGCUGGGCAACAUUCAGAGGGGACCGUCCCCUCGGUAAUGGCGAAUGGGACCCA [G11C C49A]	0.388
46. GGCGGGCAGGGUCCCAGCCUCCUCGCUGGCGCCGGCUGGGCAACAUUCCGAGGGGACCGUCCCCUCGGUAAUGGCGAAUGGGACCCA [C4G U9G]	0.293
